molecular target: BLM642-1290 zinc-demetalated (WTzn-) (Homo sapiens, UniProt P54132 642-1290); test: fluorescence anisotropy
Sequence (P54132 642-1290): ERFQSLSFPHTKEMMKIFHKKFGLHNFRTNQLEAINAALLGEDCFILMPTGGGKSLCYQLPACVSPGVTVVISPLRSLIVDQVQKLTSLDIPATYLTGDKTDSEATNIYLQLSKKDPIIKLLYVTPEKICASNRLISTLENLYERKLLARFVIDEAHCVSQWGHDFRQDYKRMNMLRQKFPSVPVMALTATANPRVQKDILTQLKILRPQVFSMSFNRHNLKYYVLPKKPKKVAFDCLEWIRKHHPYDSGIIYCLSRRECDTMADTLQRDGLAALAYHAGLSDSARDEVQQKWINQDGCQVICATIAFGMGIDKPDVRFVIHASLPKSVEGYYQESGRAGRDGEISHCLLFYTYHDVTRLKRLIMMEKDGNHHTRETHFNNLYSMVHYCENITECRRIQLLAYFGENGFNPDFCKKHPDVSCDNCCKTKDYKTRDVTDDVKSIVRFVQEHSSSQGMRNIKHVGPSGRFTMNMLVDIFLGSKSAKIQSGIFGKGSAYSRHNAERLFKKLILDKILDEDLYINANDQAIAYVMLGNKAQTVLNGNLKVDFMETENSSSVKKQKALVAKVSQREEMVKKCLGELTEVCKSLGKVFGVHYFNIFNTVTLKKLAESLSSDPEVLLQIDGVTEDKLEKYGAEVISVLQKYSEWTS
pKd: −log10 of the molar value.
Quantity name: pKd

binder="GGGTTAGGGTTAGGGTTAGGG (structured_DNA) [F21 G4 DNA]" quantity_name=pKd val=8.31
